Each recorded value in this set is attributed to PubChem BioAssay AID1996.

Below is a list of entries, each paired with its recorded solubility kinetic value.
Details: buffer; pH 7.4; 200.0 µM

• COc1ccc(OCC(=O)OCC(=O)NC2CCCC2)cc1 = > 46.1 µg/mL
• Cc1cc(=O)oc2c(CN3CCCC3)c(O)c(Cl)cc12 = > 44.1 µg/mL
• Cc1cc(S(=O)(=O)NCCN2CCOCC2)ccc1Cl = > 47.8 µg/mL
• COc1ccc(C)cc1S(=O)(=O)NNc1nc(C)cc(C)n1 = > 48.4 µg/mL

Requested field: solubility kinetic. Item: COCCNC(=O)C(OC(=O)c1ccco1)c1ccccc1F (stereo not given) > 48.2 µg/mL

* * *

Below is a list of entries, each paired with its recorded solubility kinetic value.
Conditions: buffer; pH 7.4; 200.0 µM

The following molecules have reported results that may help.
* COc1ccc(NC(=S)Nc2cccc(C)n2)cc1 | < 0.2 µg/mL
* CCOCCCNC(=O)C1CCCN1C(=O)Nc1ccccc1[N+](=O)[O-] (centres undefined) | > 54.7 µg/mL
* N=C(N=C(N)N)N1CCc2ccccc21 | > 30.5 µg/mL
* CC1C(=O)Nc2ccccc2N1C(=O)c1cccc(C(F)(F)F)c1 (centres undefined) | > 50.1 µg/mL
* Cc1ccccc1NC(=S)N1CCCCCC1 | > 37.3 µg/mL
* CC(=O)N1CCC(c2c[nH]c3ccccc23)CC1 | > 36.3 µg/mL
* C=CCC(=O)N1CCCC(CCC(=O)NCc2ccccc2F)C1 (centres undefined) | > 49.9 µg/mL
* CCCN1C(=O)c2ccc(C(=O)Nc3cc(C)ccc3O)cc2C1=O | 0.9 µg/mL
* CC(C1CC1)N(Cc1ccccc1)C(=O)NC(=O)c1ccccc1 (centres undefined) | 46.1 µg/mL
* COc1cccc(CN(C)C(c2ccccc2)c2ccccc2)c1OC | 1.7 µg/mL

Requested field: solubility kinetic. Item: Cc1ccc(CNC(=S)NC2CCC(C(C)(C)C)CC2)cc1 (centres undefined) < 0.3 µg/mL

Requested field: solubility kinetic. Item: Cc1cc(C)cc(OCC(O)CN2CC(C)OC(C)C2)c1.Cl (centres undefined) > 49.5 µg/mL

Requested field: solubility kinetic. Item: CSC(=Nc1ccccc1)C(C#N)c1nc2ccccc2[nH]1 (centres undefined) 0.3 µg/mL

Requested field: solubility kinetic. Item: COc1ccc(NC(=O)CS(=O)(=O)c2ccc(C)cc2)c(OC)c1 > 52.4 µg/mL

Requested field: solubility kinetic. Item: Cn1cccc1C(=O)C(=O)Nc1ccccc1C(F)(F)F 5 µg/mL

Requested field: solubility kinetic. Item: Cc1ccc2oc(C(=O)Nc3cc(C)on3)c(C)c2c1 1.2 µg/mL

Requested field: solubility kinetic. Item: CC(=O)c1c(C)n(CCc2ccc(Cl)cc2)c2ccc(O)cc12 < 0.7 µg/mL

Requested field: solubility kinetic. Item: CCOC(=O)Nc1ccc2c(c1)N(C(=O)CN)c1ccccc1CC2 36.6 µg/mL

Requested field: solubility kinetic. Item: Cc1ccn2c(=O)c(C(=O)O)cnc2c1 > 30.6 µg/mL

* * *

Details: buffer; pH 7.4; 200.0 µM
Classify by measured solubility kinetic: yes if it is equal to or exceeds 30 µg/mL, no if it is smaller.

• CC(C)(C)NC(=O)N1CCn2cccc2C1c1ccccc1F (centres undefined) = yes

Could you tell me if the measured solubility kinetic of Cn1cc(CCC(=O)NCCCc2ccccc2)c2ccccc21 reaches 30 µg/mL or more? no

Could you tell me if the measured solubility kinetic of CN(CC(=O)Nc1ccc(N2CCOCC2)cc1)C(=O)c1ccc(CS(C)(=O)=O)cc1 reaches 30 µg/mL or more? yes

Could you tell me if the measured solubility kinetic of Nc1ccc(S(=O)(=O)NC2=NCCCCC2)cc1N reaches 30 µg/mL or more? yes

Could you tell me if the measured solubility kinetic of O=C(Nc1sc2c(c1C(=O)O)CCC2)c1ccccc1F reaches 30 µg/mL or more? yes

Could you tell me if the measured solubility kinetic of COc1ccccc1C(=O)CN1C(=O)NC2(CCCc3ccccc32)C1=O (centres undefined) reaches 30 µg/mL or more? no

Could you tell me if the measured solubility kinetic of CC(C)N1C(=O)C(O)(C2COC(C)(C)CC2=O)c2ccccc21 (centres undefined) reaches 30 µg/mL or more? yes

Could you tell me if the measured solubility kinetic of Cc1ccc(OCC(=O)NCCNC(=O)c2cccnc2)cc1C reaches 30 µg/mL or more? yes

Could you tell me if the measured solubility kinetic of COc1ccc(N2CCN(C(=O)c3cccc(NS(=O)(=O)c4cccc(F)c4)c3)CC2)cc1 reaches 30 µg/mL or more? yes

Could you tell me if the measured solubility kinetic of O=C(CSc1nc(-c2ccccc2)cc(=O)[nH]1)Nc1ccccc1 reaches 30 µg/mL or more? no

Could you tell me if the measured solubility kinetic of Cl.OC(c1ccc(Cl)cc1)c1nccc2ccccc12 (centres undefined) reaches 30 µg/mL or more? yes

Could you tell me if the measured solubility kinetic of O=C(O)/C=C/C(=O)Nc1ccc(Oc2ccccc2)cc1 reaches 30 µg/mL or more? yes

Could you tell me if the measured solubility kinetic of COc1cc2[nH]c(C(=O)N3CCN(C)CC3)cc2c(OC)c1OC reaches 30 µg/mL or more? yes

Could you tell me if the measured solubility kinetic of C=CCOc1c(Cl)cc(C(=S)N2CCCC2)cc1OCC reaches 30 µg/mL or more? no

Could you tell me if the measured solubility kinetic of COc1ccc(Cl)cc1NC(=O)NCCN1CCCCC1 reaches 30 µg/mL or more? yes
